target: Adrenergic receptor beta (Rattus norvegicus, UniProt P18090+P10608+P26255); assay: Inhibition of beta adrenergic receptor isolated from rat ventricle homogenates.
Readout label: IC50 (nM)

{"columns": ["Compound", "Endpoint unit", "Measured number"],
 "data": [
  ["OC(CNc1ccc(F)cc1)CON=C(C1CC1)C1CC1 (stereo not given)", "nM", 12.4]
]}

(1) OC(CNc1ccc(Cl)cc1)CON=C(C1CC1)C1CC1 (stereo not given)
(2) OC(CNc1cccc(I)c1)CON=C(C1CC1)C1CC1 (stereo not given)
## Task Between item 1 and item 2 , which reported IC50 is smaller? Selection: enter the item's label.
## Result 1
(1: 11.4 nM, 2: 630 nM)

====

organism: Rattus norvegicus; assay: The compound was tested for percent increase in heart rate with respect to that measured after isoprenaline in 5-10 animals.; type: functional
Readout label: Increase (%)
Value expressed in %; do not type the unit.

# example entries with known answers
{"columns": ["Molecule", "Endpoint unit", "Measured number"],
 "data": [
  ["O=[N+]([O-])c1ccc(NCC(O)CON=C(C2CC2)C2CC2)cc1 (stereo not given)", "%", 10],
  ["CC(C)NCC(O)COc1cccc2ccccc12 (stereo not given) [PROPRANOLOL]", "%", 0],
  ["OC(CNc1ccccc1I)CON=C(C1CC1)C1CC1 (stereo not given)", "%", 10],
  ["OC(CNc1ccccn1)CON=C(C1CC1)C1CC1 (stereo not given)", "%", 0],
  ["OC(CNc1nc2ccccc2s1)CON=C(C1CC1)C1CC1 (stereo not given)", "%", 10],
  ["CC(C)(Cc1ccc(NCC(O)CON=C(C2CC2)C2CC2)cc1)[N+](=O)[O-] (stereo not given)", "%", 10],
  ["OC(CNc1ccncc1)CON=C(C1CC1)C1CC1 (stereo not given)", "%", 0],
  ["OC(CNc1ccccc1-c1ccccc1)CON=C(C1CC1)C1CC1 (stereo not given)", "%", 0]
]}

## Task Field request: Increase | item: CCCCc1ccc(NCC(O)CON=C(C2CC2)C2CC2)cc1 (stereo not given)
## Result 10

## Task Please do the same for OC(CNc1ccc(Br)cc1)CON=C(C1CC1)C1CC1 (stereo not given) as well.
## Result 10

## Task Lookup OC(CNc1ccccc1)CON=C(C1CC1)C1CC1 (stereo not given)
## Result 10

## Task Same lookup for Cc1ccnc(NCC(O)CON=C(C2CC2)C2CC2)c1 (stereo not given) , please.
## Result 0

## Task Repeat for the following molecule: Oc1ccc(NCC(O)CON=C(C2CC2)C2CC2)cc1 (stereo not given)
## Result 10

## Task Item: CCOC(=O)c1ccc(NCC(O)CON=C(C2CC2)C2CC2)cc1 (stereo not given)
## Result 10

## Task Then OC(CNc1nc2ccccc2[nH]1)CON=C(C1CC1)C1CC1 (stereo not given) ?
## Result 10

====

target: Adrenergic receptor beta (Rattus norvegicus) (UniProt P18090+P10608+P26255)
Readout label: Specificity

Take a look at these entries with their results.
{"columns": ["Compound", "Specificity"],
 "data": [
  ["CCCCc1ccc(NCC(O)CON=C(C2CC2)C2CC2)cc1 (centres undefined)", 4390],
  ["OC(CNc1ccc(F)cc1)CON=C(C1CC1)C1CC1 (centres undefined)", 2120],
  ["OC(CNc1ccncc1)CON=C(C1CC1)C1CC1 (centres undefined)", 2240]
]}

(1) OC(CNc1ccc(I)cc1)CON=C(C1CC1)C1CC1 (centres undefined)
(2) O=C(O)c1ccc(NCC(O)CON=C(C2CC2)C2CC2)cc1 (centres undefined)
## Task Which entry shows the lesser value of Specificity here, 1 or 2 ? Provide the label of your selected option as the answer.
## Result 2
(2: 3570, 1: 6700)

(A) O=[N+]([O-])c1ccc(NCC(O)CON=C(C2CC2)C2CC2)cc1 (centres undefined)
(B) OC(CNc1ccc(Br)cc1)CON=C(C1CC1)C1CC1 (centres undefined)
## Task Field: lower Specificity | Options: A / B Pick one; state its label.
## Result A

(a) CCOC(=O)c1ccc(NCC(O)CON=C(C2CC2)C2CC2)cc1 (centres undefined)
(b) OC(CNc1ccccn1)CON=C(C1CC1)C1CC1 (centres undefined)
## Task Could you please tell me which of these two has the higher Specificity: a or b ? Please identify the chosen entry by its label.
## Result a

(1) OC(CNc1ccccc1I)CON=C(C1CC1)C1CC1 (centres undefined)
(2) Cc1ccc(NCC(O)CON=C(C2CC2)C2CC2)cc1 (centres undefined)
## Task Which is greater in Specificity, the first item 1 or the second item 2 ? Please respond with the label that marks your chosen entry.
## Result 2
(2: 1970, 1: 490)

(I) OC(CNc1ccc(Cl)cc1)CON=C(C1CC1)C1CC1 (centres undefined)
(II) CC(C)(Cc1ccc(NCC(O)CON=C(C2CC2)C2CC2)cc1)[N+](=O)[O-] (centres undefined)
(III) CC(C)(C)c1ccc(NCC(O)CON=C(C2CC2)C2CC2)cc1 (centres undefined)
## Task Write the entries in order, lowest recorded Specificity first. Labels, requested order.
## Result I, II, III
(I: 1640, II: 3700, III: 20800)

====

target: Adrenergic receptor beta (Rattus norvegicus, UniProt P18090+P10608+P26255); experiment: Inhibition of beta adrenergic receptor isolated from rat ventricle homogenates.
Readout label: IC50 (µM)

Here are 2 molecules together with their reported answers.
{"columns": ["Molecule", "Measured target", "Endpoint unit", "IC50"],
 "data": [
  ["OC(CNc1ccccc1-c1ccccc1)CON=C(C1CC1)C1CC1 (stereo unspecified)", "Adrenergic receptor beta (Rattus norvegicus, UniProt P18090+P10608+P26255)", "µM", 0.998],
  ["OC(CNc1nc2ccccc2[nH]1)CON=C(C1CC1)C1CC1 (stereo unspecified)", "Adrenergic receptor beta (Rattus norvegicus, UniProt P18090+P10608+P26255)", "µM", 0.0132]
]}

(I) OC(CNc1ccccc1I)CON=C(C1CC1)C1CC1 (stereo unspecified)
(II) OC(CNc1ccccn1)CON=C(C1CC1)C1CC1 (stereo unspecified)
(III) Cc1ccccc1NCC(O)CON=C(C1CC1)C1CC1 (stereo unspecified)
(IV) OC(CNc1ccc(I)cc1)CON=C(C1CC1)C1CC1 (stereo unspecified)
## Task Output the entries ranked by IC50 from maximum down to minimum. In your reply, arrange the labels in the requested order.
## Result I, II, III, IV

====

species on record: Cavia porcellus; test: Ionotropic effect in electrically driven left atrial preparation (Atria isolated from guinea pig) and is expressed in pA2.; settings: Cardiac atrium, read-out: pA2 (converted)
Readout label: Kb (nM)
Supply the numeric figure in nM, leaving out any unit text.

Use the examples below as a reference point.
{"columns": ["Compound", "Measured number"],
 "data": [
  ["OC(CNc1ccncc1)CON=C(C1CC1)C1CC1 (stereo not given)", 251],
  ["OC(CNc1ccccn1)CON=C(C1CC1)C1CC1 (stereo not given)", 63.1]
]}

Now consider the entry below.
## Task Param item = Oc1ccc(NCC(O)CON=C(C2CC2)C2CC2)cc1 (stereo not given) ; retrieve measured Kb.
## Result 200

====

Adrenergic receptor beta (Rattus norvegicus) (UniProt P18090+P10608+P26255) data, read-out Specificity
Lab note: record the figure alone, no unit after it.

{"columns": ["Molecule", "Readout label", "Measured number"],
 "data": [
  ["Cc1ccccc1NCC(O)CON=C(C1CC1)C1CC1 (stereo not given)", "Specificity", 1690],
  ["OC(CNc1ccc(-c2ccccc2)cc1)CON=C(C1CC1)C1CC1 (stereo not given)", "Specificity", 690],
  ["OC(CNc1ccccc1)CON=C(C1CC1)C1CC1 (stereo not given)", "Specificity", 3940]
]}

We now examine a further molecule.
## Task Name the reported Specificity value associated with the molecule Cc1ccnc(NCC(O)CON=C(C2CC2)C2CC2)c1 (stereo not given)
## Result 640

====

organism: Cavia porcellus; test: Ionotropic effect in electrically driven left atrial preparation (Atria isolated from guinea pig) and is expressed in pA2.; conditions: Cardiac atrium, read-out: pA2 (converted)
Catalogue of compounds with associated Kb
Kindly answer with a numeric value in nM, unit omitted.

{"columns": ["Compound", "Measured number"],
 "data": [
  ["Cc1ccc(NCC(O)CON=C(C2CC2)C2CC2)cc1 (configuration not stated)", 10],
  ["CCOC(=O)c1ccc(NCC(O)CON=C(C2CC2)C2CC2)cc1 (configuration not stated)", 251],
  ["CC(C)(Cc1ccc(NCC(O)CON=C(C2CC2)C2CC2)cc1)[N+](=O)[O-] (configuration not stated)", 79.4],
  ["CC(C)(C)c1ccc(NCC(O)CON=C(C2CC2)C2CC2)cc1 (configuration not stated)", 50.1],
  ["OC(CNc1ccccc1)CON=C(C1CC1)C1CC1 (configuration not stated)", 126]
]}

Now take the following compound into account.
## Task Recorded Kb for Cc1ccnc(NCC(O)CON=C(C2CC2)C2CC2)c1 (configuration not stated) , please?
## Result 79.4

Source of measurements: ChEMBL document CHEMBL1131212
